Assign half-life at 20 μM to each entry below.
experiment: in vitro; conditions: human, 20% fecal homogenate (supernatant), anaerobic, pH 6.8

half-life at 20 μM measured on CC(=O)NCCCC[C@H](NC(=O)[C@](C)(CC(C)C)NC(=O)[C@H](Cc1ccc2ccccc2c1)NC(=O)[C@H](Cc1ccc(OCCN)cc1)NC(=O)[C@H]1NC(=O)[C@H](CCC(N)=O)NC(=O)[C@H](Cc2c[nH]c3c(C)cccc23)NC(=O)[C@H]([C@@H](C)O)NC(=O)[C@H](CC(N)=O)NC(=O)[C@@H](NC(C)=O)C(C)(C)SSC1(C)C)C(=O)N[C@@H](C)C(=O)NCCC(N)=O [compound 207] = > 24 h

// field: half-life at 20 μM; key: CC(=O)NCCCC[C@@H]1NC(=O)[C@H](Cc2c[nH]c3c(C)cccc23)NC(=O)[C@H]([C@@H](C)O)NC(=O)[C@H](CC(N)=O)NC(=O)[C@@H](NC(C)=O)C(C)(C)SSC(C)(C)[C@@H](C(=O)N[C@@H](Cc2ccc(OCCN)cc2)C(=O)N[C@@H](Cc2ccc3ccccc3c2)C(=O)N[C@@](C)(CCCCN)C(=O)N[C@@H](CCCCNC(C)=O)C(=O)N[C@@H](CC(N)=O)C(=O)N[C@@H](C(N)=O)C(C)C)NC1=O [compound 251] ; value = > 24 h

Reported half-life at 20 μM for CC(=O)NCCCC[C@H](NC(=O)[C@](C)(CC(C)C)NC(=O)[C@H](Cc1ccc2ccccc2c1)NC(=O)[C@H](Cc1ccc(OCCN)cc1)NC(=O)[C@H]1NC(=O)[C@H](CCC(N)=O)NC(=O)[C@H](Cc2c[nH]c3c(C)cccc23)NC(=O)[C@H]([C@@H](C)O)NC(=O)[C@H](CC(N)=O)NC(=O)[C@@H](NC(C)=O)C(C)(C)SSC1(C)C)C(=O)N[C@@H](CC(C)C)C(=O)NCCC(N)=O [compound 208] was > 24 h

###

test: in vitro; settings: cynomolgus monkey, 20% fecal homogenate (supernatant), anaerobic, pH 6.8
Bridge positions count the residues as written; N and C are the ends. Square brackets hold non-standard residues; d marks the D form. Peptide text beside a SMILES is read from it. Trp(7-Me) = Cc1cccc2c(C[C@H](N)C(=O)O)c[nH]c12; 2Nal = N[C@@H](Cc1ccc2ccccc2c1)C(=O)O; AEF = NCCOc1ccc(C[C@H](N)C(=O)O)cc1; αMeL = CC(C)C[C@](C)(N)C(=O)O; Pen = CC(C)(S)[C@H](N)C(=O)O; αMeK = C[C@](N)(CCCCN)C(=O)O; βAla = NCCC(=O)O
Could you please report measured half-life at 20 μM for the items listed next?

According to the records, this compound CC(=O)N[C@H](CCCNC(=N)N)C(=O)N[C@H]1CCSC[C@@H](C(=O)N[C@@H](Cc2ccc(OCCN)cc2)C(=O)N[C@@H](Cc2ccc3ccccc3c2)C(=O)NC2(C(=O)N[C@@H](CCC(=O)O)C(=O)N[C@@H](CC(N)=O)C(=O)N[C@@H](CC(N)=O)C(N)=O)CCOCC2)NC(=O)[C@H](CCC(N)=O)NC(=O)[C@H](Cc2c[nH]c3c(C)cccc23)NC(=O)[C@H]([C@@H](C)O)NC(=O)[C@H](CCC(N)=O)NC1=O displays half-life at 20 μM of 3 h

The reported value for COc1cccc2c(C[C@@H]3NC(=O)[C@H]([C@@H](C)O)NC(=O)[C@H](CC(N)=O)NC(=O)[C@@H](NC(C)=O)C(C)(C)SSC(C)(C)[C@@H](C(=O)N[C@@H](Cc4ccc(OCCN)cc4)C(=O)N[C@@H](Cc4ccc5ccccc5c4)C(=O)N[C@@](C)(CCCCN)C(=O)N[C@@H](CCCCNC(C)=O)C(=O)N[C@@H](CC(N)=O)C(=O)N[C@H](CC(C)C)C(N)=O)NC(=O)[C@H](CCCCNC(C)=O)NC3=O)c[nH]c12 in terms of half-life at 20 μM is > 24 h

// half-life at 20 μM value for CC(=O)NCCCC[C@H](NC(=O)[C@](C)(CC(C)C)NC(=O)[C@H](Cc1ccc2ccccc2c1)NC(=O)[C@H](Cc1ccc(OCCN)cc1)NC(=O)[C@H]1NC(=O)[C@H](CCC(N)=O)NC(=O)[C@H](Cc2c[nH]c3c(C)cccc23)NC(=O)[C@H]([C@@H](C)O)NC(=O)[C@H](CC(N)=O)NC(=O)[C@@H](NC(C)=O)C(C)(C)SSC1(C)C)C(=O)N[C@H](CO)C(=O)NCCC(N)=O : > 24 h

The compound listed as CC(=O)NCCCC[C@H](NC(=O)[C@](C)(CCCCN)NC(=O)[C@H](Cc1ccc2ccccc2c1)NC(=O)[C@H](Cc1ccc(OCCN)cc1)NC(=O)[C@H]1NC(=O)[C@](C)(CC(C)C)NC(=O)[C@H](Cc2c[nH]c3c(C)cccc23)NC(=O)[C@H]([C@@H](C)O)NC(=O)[C@H](CC(N)=O)NC(=O)[C@@H](NC(C)=O)C(C)(C)SSC1(C)C)C(=O)N[C@@H](CC(N)=O)C(=O)NCCC(N)=O [compound 235] (Ac-[Pen]NT[Trp(7-Me)][αMeL][Pen][AEF][2Nal][αMeK]K(Ac)N[βAla]-NH2; disulfide 1-6) has a reported half-life at 20 μM of > 24 h

half-life at 20 μM reading for CC(=O)NCCCC[C@@H]1NC(=O)[C@H](Cc2c[nH]c3c(C)cccc23)NC(=O)[C@H]([C@@H](C)O)NC(=O)[C@H](CC(N)=O)NC(=O)[C@@H](NC(C)=O)C(C)(C)SSC(C)(C)[C@@H](C(=O)N[C@@H](Cc2ccc(OCCN)cc2)C(=O)N[C@@H](Cc2ccc3ccccc3c2)C(=O)N[C@@](C)(CCCCN)C(=O)N[C@@H](CCCCNC(C)=O)C(=O)N[C@@H](CO)C(=O)NCCC(N)=O)NC1=O : > 24 h

###

assay: in vitro; details: cynomolgus monkey, 20% fecal homogenate (supernatant), anaerobic, pH 6.8
test.readout: half-life at 20 μM

Entry CC(=O)NCCCC[C@H](NC(=O)[C@](C)(CC(C)C)NC(=O)[C@H](Cc1ccc2ccccc2c1)NC(=O)[C@H](Cc1ccc(OCCN)cc1)NC(=O)[C@H]1NC(=O)[C@H](CCC(N)=O)NC(=O)[C@H](Cc2c[nH]c3c(C)cccc23)NC(=O)[C@H]([C@@H](C)O)NC(=O)[C@H](CC(N)=O)NC(=O)[C@@H](NC(C)=O)C(C)(C)SSC1(C)C)C(=O)N[C@@](C)(CC(C)C)C(=O)NCCC(N)=O ; half-life at 20 μM = > 24 h

Entry CC(=O)NCCCC[C@@H]1NC(=O)[C@H](Cc2c[nH]c3c(C)cccc23)NC(=O)[C@H]([C@@H](C)O)NC(=O)[C@H](CC(N)=O)NC(=O)[C@@H](NC(C)=O)C(C)(C)SSC(C)(C)[C@@H](C(=O)N[C@@H](Cc2ccc(OCCN)cc2)C(=O)N[C@@H](Cc2ccc3ccccc3c2)C(=O)N[C@@](C)(CCCCN)C(=O)N[C@@H](CCCCNC(C)=O)C(=O)NCCC(=O)NCCC(N)=O)NC1=O — recorded half-life at 20 μM = > 24 h

get_value(item= CC(=O)NCCCC[C@@H]1NC(=O)[C@H](Cc2c[nH]c3c(C)cccc23)NC(=O)[C@H]([C@@H](C)O)NC(=O)[C@H](CC(N)=O)NC(=O)[C@@H](NC(C)=O)C(C)(C)SSC(C)(C)[C@@H](C(=O)N[C@@H](Cc2ccc(OCCN)cc2)C(=O)N[C@@H](Cc2ccc3ccccc3c2)C(=O)N[C@@](C)(CCCCN)C(=O)N[C@@H](CCCCNC(C)=O)C(=O)N[C@@H](CC(N)=O)C(=O)NCCC(N)=O)NC1=O , readout=half-life at 20 μM) returns 8 h

###

experiment: in vitro; settings: cynomolgus monkey, 20% fecal homogenate (supernatant), anaerobic, pH 6.8
test.readout: half-life at 20 μM (min)
# number only, unit min dropped from output

// CC(=O)NCCCC[C@@H]1NC(=O)[C@H](Cc2c[nH]c3c(C)cccc23)NC(=O)[C@H]([C@@H](C)O)NC(=O)[C@H](CC(N)=O)NC(=O)[C@@H](NC(C)=O)C(C)(C)SSC(C)(C)[C@@H](C(=O)N[C@@H](Cc2ccc(OCCN)cc2)C(=O)N[C@@H](Cc2ccc3ccccc3c2)C(=O)N[C@@](C)(CCCCN)C(=O)N[C@@H](CCCCNC(C)=O)C(=O)N[C@@H](CC(N)=O)C(=O)N2CCC[C@H]2C(N)=O)NC1=O : half-life at 20 μM value = 180

Data point: CC(=O)NCCCC[C@H](NC(=O)[C@](C)(CCCCN)NC(=O)[C@H](Cc1ccc2ccccc2c1)NC(=O)[C@H](Cc1ccc(OCCN)cc1)NC(=O)[C@H]1NC(=O)[C@H](CCC(N)=O)NC(=O)[C@H](Cc2c[nH]c3cc(Cl)ccc23)NC(=O)[C@H]([C@@H](C)O)NC(=O)[C@H](CC(N)=O)NC(=O)[C@@H](NC(C)=O)C(C)(C)SSC1(C)C)C(=O)N[C@@H](CC(N)=O)C(=O)NCCC(N)=O ; half-life at 20 μM = 780
